Could you please report measured MIC for the items listed next?
tested on: Escherichia coli ATCC 25922; experiment: Minimum inhibitory concentration, urinary tract organisms (Example 13); format: cell-based; settings: ATCC25922, Ec 25922, read-out: Minimum Inhibitory Concentration
Use µg/mL as the unit, but write only the number.

Checklist item: MIC tested on Escherichia coli ATCC 25922, entry O=C(NCCCl)Oc1ccc(Cl)c2cccnc12 , value?
75

Checklist item: MIC tested on Escherichia coli ATCC 25922, entry CCOC(=O)CNC(=O)Oc1cccc2ccc(C)nc12 , value?
75

Checklist item: MIC tested on Escherichia coli ATCC 25922, entry CCOC(=O)CNC(=O)Oc1ccc([N+](=O)[O-])c2cccnc12 , value?
10

Checklist item: MIC tested on Escherichia coli ATCC 25922, entry CCOC(=O)CNC(=O)Oc1c(Cl)cc(Cl)c2cccnc12 , value?
10

Checklist item: MIC tested on Escherichia coli ATCC 25922, entry CCOC(=O)CNC(=O)Oc1cccc2cccnc12 , value?
75

Checklist item: MIC tested on Escherichia coli ATCC 25922, entry CCOC(=O)CNC(=O)Oc1ccc(Cl)c2cccnc12.Cl , value?
25

Checklist item: MIC tested on Escherichia coli ATCC 25922, entry CCOC(=O)CNC(=O)Oc1ccc(Cl)c2cccnc12 , value?
25

Checklist item: MIC tested on Escherichia coli ATCC 25922, entry CCOC(=O)CNC(=O)Oc1c(Br)cc(Br)c2cccnc12 , value?
25

Checklist item: MIC tested on Escherichia coli ATCC 25922, entry CCOC(=O)CNC(=O)Oc1ccc(Cl)c2cccnc12.CS(=O)(=O)O , value?
25

Every entry's value here was drawn from patent US4472404A.
